Data provenance is PubChem BioAssay (NCATS).

# PROTOCOL_SUMMARY: Primary qHTS for Vero E6 cytotoxicity: counterscreen for inhibitors of SARS-S pseudo-typed particle cell entry (AID 1479150)
# REPORTED_CONDITIONS: cell viability; series mostly up to 57.1 µM
Inconclusive results are not listed. The source made the active and inactive calls. Calls come from the whole dose curve.
REPORTED_METRIC: activity change, negative = cytotoxicity

MOLECULE: O=S(=O)(O)c1ccc2nc(-c3ccccc3)[nH]c2c1
activity change, negative = cytotoxicity: inactive
//
MOLECULE: Nc1nc(/C(=C/CC(=O)O)C(=O)N[C@@H]2C(=O)N3C(C(=O)O)=CCS[C@H]23)cs1
activity change, negative = cytotoxicity: inactive
//
MOLECULE: CCOC(=O)O[C@]1(C(=O)OCCl)CC[C@H]2[C@@H]3CCC4=CC(=O)C=C[C@]4(C)[C@H]3[C@@H](O)C[C@@]21C
activity change, negative = cytotoxicity: inactive
//
MOLECULE: COc1cc(C(=O)NC2CCCNC2)cc(OC)c1OC (centres undefined)
activity change, negative = cytotoxicity: inactive
//
MOLECULE: O=C(NCC(O)CO)c1c(I)c(C(=O)NCC(O)CO)c(I)c(N(CCO)C(=O)CO)c1I (centres undefined)
activity change, negative = cytotoxicity: inactive

Proceed to the following item.
**Q:** Fill in: activity change, negative = cytotoxicity of CCCCCCCCCCCCCCCCOP(=O)([O-])OCC[N+](C)(C)C is ___
**A:** inactive

====

# Test system: Zika virus NS2B-NS3 protease
# PROTOCOL_SUMMARY: Primary screen GU AMC qHTS for Zika virus inhibitors (AID 1347154); note: nearly all actives have a fitted effect of over 70% in size
# REPORTED_CONDITIONS: Zika NS2B-NS3 unlinked protease, AMC fluorogenic substrate; series mostly up to 54.1 µM
Results filed as inconclusive are left out. Calls of active or inactive are those of the source. Calls come from the whole dose curve; as a rule, active = well fitted inhibition curve with a large enough effect; inconclusive = small, poorly fitted or top-dose-only effect; inactive = flat fitted curve, though single readings scatter.
Respond using exactly one of the listed classes: y = active, n = inactive

**Q:** What classification did CCC1(CC)C(=O)C=CNC1=O end up with in this test?
**A:** n

**Q:** Okay, and O=c1oc2ccccc2c(O)c1Cc1c(O)c2ccccc2oc1=O ?
**A:** n

**Q:** Please answer likewise for C[C@]12CCC(=O)C=C1CC[C@@H]1[C@@H]2CC[C@]2(C)C(=O)CC[C@@H]12
**A:** n

**Q:** Also COP(=S)(OC)SCN1C(=O)c2ccccc2C1=O , if possible.
**A:** n

**Q:** Now consider O=C(Nc1ccc(Br)cc1)c1cc(Br)cc(Br)c1O and answer again.
**A:** y

**Q:** Then this molecule: C=CCC1([C@H](C)CCC)C(=O)NC(=O)NC1=O
**A:** n

**Q:** Repeat for the following molecule: c1ccc(N2CCNCC2)cc1
**A:** n

**Q:** Then this molecule: CC(C)C[C@H](CN)CC(=O)O
**A:** n

**Q:** Next: COc1cc(CC(C)N)cc(OC)c1OC (configuration not stated)
**A:** n

**Q:** Can you handle O=C1c2ccccc2C(=O)c2ccccc21 next?
**A:** n

**Q:** Now consider C[C@]12CC[C@@H]3c4ccc(OC(=O)N(CCCl)CCCl)cc4CC[C@H]3[C@@H]1CC[C@@H]2O .
**A:** y

**Q:** Entry COP(=S)(OC)Oc1ccc(SC)c(C)c1 please
**A:** n
